- procedure text: Acute toxicity test
- protocol conditions: mouse, in vivo, ip; mice, intraperitoneal, 7 days observation
The entries below come with measured LD50 at 168 h values attached.
property measured: LD50 at 168 h

- molecule: "CCCC(C)C1C(C(=O)OCCCc2cccnc2)=C(C)NC(C)=C1C(=O)OCCCc1cccnc1 (centres unmarked)"
  result: "188 mg/kg"
- molecule: "CCCCCCCCC1C(C(=O)OCCCc2cccnc2)=C(C)NC(C)=C1C(=O)OCCCc1cccnc1"
  result: "> 2000 mg/kg"
- molecule: "CC1=C(C(=O)OCCCc2cccnc2)C(Cc2ccccc2)C(C(=O)OCCCc2cccnc2)=C(C)N1"
  result: "1120 mg/kg"
- molecule: "CC1=C(C(=O)OCCCc2cccnc2)C(C(C)C)C(C(=O)OCCCc2cccnc2)=C(C)N1"
  result: "750 mg/kg"
- molecule: "CCCCCC1C(C(=O)OCCCc2cccnc2)=C(C)NC(C)=C1C(=O)OCCCc1cccnc1"
  result: "> 2000 mg/kg"

====

- Tested on: KCl contraction in rat arteries (thoracic aorta)
- procedure text: Action easing KCl contraction in rat arteries (thoracic aorta ring)
- protocol conditions: read-out: IC50 value (50% inhibitory concentration of hyperpotassium contraction), Test Example 7, Table 7, 37° C.
- Procedure: Action easing KCl contraction in rat arteries The specimen was stabilized for approximately 60 minutes, then a potassium chloride solution was added to the Magnus tube to give a final concentration of 50 μM. […] The contraction force was recorded by an FD-pickup (made by Nihon Kodensha) via a polygraph (made by Nihon Kodensha).
Recorded IC50 by entry

- compound: "CC1=C(C(=O)OCCCc2cccnc2)C(CCc2ccccc2)C(C(=O)OCCCc2cccnc2)=C(C)N1 [Compound 12]"
  system name: "KCl contraction in rat arteries (thoracic aorta)"
  IC50: "> 30 µM"
- compound: "CC1=C(C(=O)OCCCc2cccnc2)C(C=Cc2ccco2)C(C(=O)OCCCc2cccnc2)=C(C)N1 [Compound 10]"
  system name: "KCl contraction in rat arteries (thoracic aorta)"
  IC50: "> 30 µM"
- compound: "CCCC1C(C(=O)OCCCc2cccnc2)=C(C)NC(C)=C1C(=O)OCCCc1cccnc1 [Compound 2]"
  system name: "KCl contraction in rat arteries (thoracic aorta)"
  IC50: "> 30 µM"
- compound: "CC1=C(C(=O)OCCCc2cccnc2)C(C(C)C)C(C(=O)OCCCc2cccnc2)=C(C)N1 [Compound 1]"
  system name: "KCl contraction in rat arteries (thoracic aorta)"
  IC50: "> 30 µM"

====

- Test system: TxA2 synthesis
- procedure text: TxA2 synthesis inhibiting action test (human blood platelet microsomes)
- Format: biochemical
- protocol conditions: prostaglandin H2
The following molecules are shown together with reported TxA2 synthesis inhibiting action Rate of suppression at 10^-7 mol (%) values.
property measured: TxA2 synthesis inhibiting action Rate of suppression at 10^-7 mol (%)

- molecule: "COC(=O)C1=C(C)NC(C)=C(C(=O)OCCCc2cccnc2)C1C(C)C (stereo not drawn)"
  measurement units: "%"
  measured number: 71.4
- molecule: "CCCC1C(C(=O)OCCCc2cccnc2)=C(C)NC(C)=C1C(=O)OCCCc1cccnc1"
  measurement units: "%"
  measured number: 72.0
- molecule: "CC1=C(C(=O)OCCCCc2cccnc2)C(C(C)C)C(C(=O)OCCCCc2cccnc2)=C(C)N1"
  measurement units: "%"
  measured number: 69.7
